Measurement target: T1, monkey GPC3-His protein (monkey)
T1 construct: Bought recombinant protein; also called monkey GPC3 protein
Assay text: SPR, antibody captured on Protein A chip, monkey GPC3-His analyte;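 further: run at 25 °C with 240 s association and up to 600 s dissociation, double-referenced, kinetics fitted to a 1:1 Langmuir binding model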
Entries and their kon values follow.
# value in M⁻¹ s⁻¹; strip the unit string

F2.55.11 (antibody, human IgG1, kappa, V domains shown, Human-murine chimeric antibody) VH: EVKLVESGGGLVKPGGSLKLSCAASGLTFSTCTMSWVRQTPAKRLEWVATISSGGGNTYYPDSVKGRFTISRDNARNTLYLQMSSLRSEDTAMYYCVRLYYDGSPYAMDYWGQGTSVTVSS VL: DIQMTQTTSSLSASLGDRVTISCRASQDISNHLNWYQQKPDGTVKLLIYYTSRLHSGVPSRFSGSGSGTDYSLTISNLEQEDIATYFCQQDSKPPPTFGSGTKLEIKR: 82800
F1.136.7 (antibody, human IgG1, kappa, V domains shown, Human-murine chimeric antibody) VH: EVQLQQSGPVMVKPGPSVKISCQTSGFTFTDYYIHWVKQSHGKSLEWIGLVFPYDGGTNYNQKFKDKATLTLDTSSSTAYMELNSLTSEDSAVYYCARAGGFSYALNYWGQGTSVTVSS VL: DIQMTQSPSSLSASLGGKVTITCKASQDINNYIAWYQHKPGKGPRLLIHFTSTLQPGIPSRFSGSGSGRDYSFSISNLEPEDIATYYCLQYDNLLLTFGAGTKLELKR: 158000

Now consider a different binder.
Looking up F2.92.1 (antibody, human IgG1, kappa, V domains shown, Human-murine chimeric antibody) VH: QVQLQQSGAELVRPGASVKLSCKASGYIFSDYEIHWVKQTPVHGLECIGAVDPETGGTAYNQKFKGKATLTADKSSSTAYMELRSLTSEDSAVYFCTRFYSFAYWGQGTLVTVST VL: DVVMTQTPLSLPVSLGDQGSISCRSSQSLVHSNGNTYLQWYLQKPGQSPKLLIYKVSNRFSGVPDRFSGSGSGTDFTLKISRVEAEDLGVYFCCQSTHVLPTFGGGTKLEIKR , I found its kon recorded as 628000
